- STUDY TARGET: AQ STING (G230A-R293Q) (Homo sapiens, UniProt Q86WV6, G230A/H232R/R293Q)
- Construct: 8xHis (N, cleaved yes); SUMO (N, cleaved yes); made in house
- Sequence (Q86WV6 140-343 G230A/H232R/R293Q): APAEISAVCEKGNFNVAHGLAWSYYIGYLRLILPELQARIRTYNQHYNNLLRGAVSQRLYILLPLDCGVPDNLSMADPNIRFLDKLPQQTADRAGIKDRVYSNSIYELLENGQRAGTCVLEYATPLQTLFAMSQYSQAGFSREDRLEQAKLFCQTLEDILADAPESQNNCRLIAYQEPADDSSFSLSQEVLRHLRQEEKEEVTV
- ASSAY: Differential Scanning Fluorimetry with AQ STING
- Type: binding
- TEST CONTEXT: thermal shift vs apoprotein; 150 μM CDN; truncated AQ STING 0.1 mg/ml
READOUT LABEL: DSF ΔTm AQ STING (°C)

Some molecules with recorded DSF ΔTm AQ STING:
>  <MOLECULE>
Nc1ncnc2c1ncn2[C@@H]1O[C@@H]2COP(=O)(S)O[C@H]3[C@@H](F)[C@H](n4cnc5c(N)ncnc54)O[C@@H]3COP(=O)(S)CO[C@H]2[C@H]1F (single isomer, unassigned) [Compound 14b]

>  <TEST RESULT>
16.7

$$$$
>  <MOLECULE>
Nc1ncnc2c1ncn2[C@@H]1O[C@@H]2COP(=O)(S)O[C@H]3[C@@H](F)[C@H](n4cnc5c(N)ncnc54)O[C@@H]3COP(=O)(S)CO[C@H]2[C@H]1F (single isomer, unassigned) [Compound 14a]

>  <TEST RESULT>
16.1

$$$$

[I] Nc1ncnc2c1ncn2[C@@H]1O[C@@H]2COP(=O)(S)O[C@H]3[C@@H](F)[C@H](n4cnc5c(N)ncnc54)O[C@@H]3COP(=O)(S)CO[C@H]2[C@H]1F (single isomer, unassigned) [Compound 14c]
[II] Nc1ncnc2c1ncn2[C@@H]1O[C@@H]2COP(=O)(S)O[C@H]3[C@@H](F)[C@H](n4cnc5c(N)ncnc54)O[C@@H]3COP(=O)(O)CO[C@H]2[C@H]1F (single isomer, unassigned) [Compound 11a]
Param metric = DSF ΔTm AQ STING; output whichever of I , II has the minimum value. Choose, then provide that item's label.
II
(II: 9.3 °C, I: 17.6 °C)

* * *

- STUDY TARGET: human wild type STING (WT STING) (Homo sapiens, UniProt Q86WV6, H232R)
- Construct: host or cells: 293T cells (ATCC CRL-3216), stably double transfected with pUNO1-hSTING-WT and pGL64.27-4×ISRE
- Sequence (Q86WV6 whole entry H232R): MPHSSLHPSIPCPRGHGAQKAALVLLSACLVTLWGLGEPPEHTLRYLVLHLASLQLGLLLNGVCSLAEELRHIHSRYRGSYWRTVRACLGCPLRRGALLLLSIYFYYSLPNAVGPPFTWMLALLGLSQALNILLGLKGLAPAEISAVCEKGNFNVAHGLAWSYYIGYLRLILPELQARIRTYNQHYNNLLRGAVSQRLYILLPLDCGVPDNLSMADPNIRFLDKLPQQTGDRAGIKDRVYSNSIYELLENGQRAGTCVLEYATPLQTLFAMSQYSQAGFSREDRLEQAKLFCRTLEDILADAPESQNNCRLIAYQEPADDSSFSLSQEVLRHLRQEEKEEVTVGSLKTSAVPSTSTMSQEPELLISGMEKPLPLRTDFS
- ASSAY: Digitonin assay using 293T wtSTING-FL reporter cells
- Assay type: cell-based
- TEST CONTEXT: 293T wtSTING-FL cells, digitonin buffer 30 minutes, then 5 hours; ISRE firefly luciferase
READOUT LABEL: EC50 (nM)

>  <MOLECULE>
Nc1ncnc2c1ncn2[C@@H]1O[C@@H]2COP(=O)(S)O[C@H]3[C@@H](F)[C@H](n4cnc5c(N)ncnc54)O[C@@H]3COP(=O)(O)CO[C@H]2[C@H]1F (single isomer, unassigned) [Compound 11b]

>  <READOUT LABEL>
EC50

>  <UNIT NAME>
nM

>  <TEST RESULT>
50

$$$$

[P] Nc1ncnc2c1ncn2[C@@H]1O[C@@H]2COP(=O)(S)O[C@H]3[C@@H](F)[C@H](n4cnc5c(N)ncnc54)O[C@@H]3COP(=O)(S)CO[C@H]2[C@H]1F (single isomer, unassigned) [Compound 14b]
[Q] Nc1ncnc2c1ncn2[C@@H]1O[C@@H]2COP(=O)(S)O[C@H]3[C@@H](F)[C@H](n4cnc5c(N)ncnc54)O[C@@H]3COP(=O)(S)CO[C@H]2[C@H]1F (single isomer, unassigned) [Compound 14a]
Please indicate which entry, P or Q , has the lower recorded EC50 value. Reply briefly: the label of your chosen item.
P
